- target_entity: Recombinant human liver GK1 (GST-GK) (Homo sapiens)
- Construct: made in house; host or cells: E. coli
- Sequence (P35557 1-466 isoform P35557-2): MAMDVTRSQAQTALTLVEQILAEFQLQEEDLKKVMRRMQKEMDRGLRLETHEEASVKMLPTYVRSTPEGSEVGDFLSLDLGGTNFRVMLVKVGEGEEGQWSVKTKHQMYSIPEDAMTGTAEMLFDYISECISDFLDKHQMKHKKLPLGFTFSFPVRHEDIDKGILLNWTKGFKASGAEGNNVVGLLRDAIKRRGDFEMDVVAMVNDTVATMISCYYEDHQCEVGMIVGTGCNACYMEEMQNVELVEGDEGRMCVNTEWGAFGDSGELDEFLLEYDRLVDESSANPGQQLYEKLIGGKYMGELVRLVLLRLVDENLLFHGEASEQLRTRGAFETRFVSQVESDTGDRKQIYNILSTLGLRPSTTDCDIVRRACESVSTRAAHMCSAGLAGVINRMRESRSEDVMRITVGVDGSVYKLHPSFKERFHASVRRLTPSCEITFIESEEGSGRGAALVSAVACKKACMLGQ
- assay_notes: In vitro glucokinase activity (G6PDH-coupled NADH assay)
- Format: biochemical
- condition_label: 30° C., 5 mM D-glucose, 10% DMSO
Could you please mark met for values of SC1.5 (concentration of activator that produced a 50% increase in the activity of GK) below 0.3 µM and not met for values at or above it?

Query :: is_below(SC1.5 (concentration of activator that produced a 50% increase in the activity of GK), 0.3 µM) for CC(C)(O)Cn1ccc(NC(=O)[C@H](CC2CCCC2)N2CC(OC3CCOCC3)=CC2=O)n1 [Example 18] ?
Result :: not met

Query :: is_below(SC1.5 (concentration of activator that produced a 50% increase in the activity of GK), 0.3 µM) for CC(C)C[C@@H](C(=O)Nc1ccn(C[C@@H](O)CO)n1)N1CC(Oc2cccc(Cl)c2Cl)=CC1=O.Cl [Example 80] ?
Result :: met

Query :: is_below(SC1.5 (concentration of activator that produced a 50% increase in the activity of GK), 0.3 µM) for Cc1cccc(OC2=CC(=O)N([C@@H](CC(C)C)C(=O)Nc3ccn(C[C@@H]4COC(C)(C)O4)n3)C2)c1F [Example 130] ?
Result :: met

Query :: is_below(SC1.5 (concentration of activator that produced a 50% increase in the activity of GK), 0.3 µM) for CC(C)Oc1ccccc1OC1=CC(=O)N([C@@H](CC2CCCCC2)C(=O)Nc2ccn(CC(C)(C)O)n2)C1 [Example 195] ?
Result :: not met

Query :: is_below(SC1.5 (concentration of activator that produced a 50% increase in the activity of GK), 0.3 µM) for CC(C)(O)Cn1ccc(NC(=O)[C@H](CC2CCCCC2)N2CC(Oc3cccc4c3OCCO4)=CC2=O)n1 [Example 33] ?
Result :: met

Query :: is_below(SC1.5 (concentration of activator that produced a 50% increase in the activity of GK), 0.3 µM) for CC(C)C[C@@H](C(=O)Nc1ccn(C[C@H](O)CO)n1)N1CC(Oc2ccccc2Cl)=CC1=O [Example 175] ?
Result :: met

Query :: is_below(SC1.5 (concentration of activator that produced a 50% increase in the activity of GK), 0.3 µM) for CC(C)C[C@@H](C(=O)Nc1ccn(C[C@H]2COC(C)(C)O2)n1)N1CC(Oc2ccccc2Cl)=CC1=O [Example 174] ?
Result :: met
